Give IC50 for every item shown.
system tested: SHP2 (Homo sapiens (Human), UniProt Q06124)
Sequence (Q06124 whole entry): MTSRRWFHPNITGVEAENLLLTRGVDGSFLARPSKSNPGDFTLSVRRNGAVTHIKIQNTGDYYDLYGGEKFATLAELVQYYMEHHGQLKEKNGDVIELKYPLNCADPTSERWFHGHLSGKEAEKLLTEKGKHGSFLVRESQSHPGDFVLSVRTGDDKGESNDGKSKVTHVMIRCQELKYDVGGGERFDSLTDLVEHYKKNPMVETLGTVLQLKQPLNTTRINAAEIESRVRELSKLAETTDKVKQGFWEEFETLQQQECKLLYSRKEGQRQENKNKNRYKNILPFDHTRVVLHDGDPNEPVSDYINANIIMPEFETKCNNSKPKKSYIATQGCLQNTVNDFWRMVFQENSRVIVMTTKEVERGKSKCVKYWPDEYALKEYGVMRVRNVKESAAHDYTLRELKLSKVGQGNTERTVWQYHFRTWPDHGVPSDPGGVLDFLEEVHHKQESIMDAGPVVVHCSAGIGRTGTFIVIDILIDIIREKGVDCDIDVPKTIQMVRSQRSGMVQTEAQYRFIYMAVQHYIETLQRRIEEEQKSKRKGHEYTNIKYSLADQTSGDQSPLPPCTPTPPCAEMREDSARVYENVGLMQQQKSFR
method: SHP2 Biochemical Assay (DiFMUP conversion, pIRS1-activated)
study conditions: Table 20
Counter-ions that a name gives are not always drawn.

Would you please look over these solved cases?
- compound: "Cn1nc2ccc(-c3n[nH]c4nc(N5[C@H]6CC[C@@H]5[C@](C)(N)C6)n(C)c(=O)c34)c(Cl)c2c1Cl (racemic) [Example 175]"
  IC50: "0.012 µM"
- compound: "Cn1nc2ccc(-c3n[nH]c4nc(N5[C@@H]6CC[C@H]5C[C@@H](N)C6)n(C)c(=O)c34)c(Cl)c2c1Cl [Example 160, hydrochloride salt]"
  IC50: "0.0085 µM"

Looking up Cn1cc2c(Cl)c(-c3c[nH]c4nc(N5[C@H]6CC[C@@H]5[C@](C)(N)C6)n(C)c(=O)c34)ccc2n1 [Example 195, hydrochloride] , I see its IC50 listed as 0.016 µM

----------
system tested: UniProt Q06124
method: SHP2 Biochemical Assay (DiFMUP conversion, pIRS1-activated)
study conditions: Table 19; head prints unit as "-M"
Where a name gives a salt, the structure may show the parent alone.
Could you please report measured pIC50 for the items listed next?
One number for each entry, as −log10 of the molar value.

Examples with their reported pIC50 follow.
- molecule: "Cn1nc2ccc(-c3n[nH]c4nc(N5C[C@@H]6CC[C@H]5[C@H]6N)n(C)c(=O)c34)c(Cl)c2c1Cl (racemic)"
  pIC50: 7.89
- molecule: "CCn1cc2c(Cl)c(-c3c[nH]c4nc(N5CCCC(N)CC5)n(C)c(=O)c34)ccc2n1 (racemic) [Example 154, hydrochloride]"
  pIC50: 7.68
- molecule: "Cn1cc2c(Cl)c(-c3c[nH]c4nc(N5CC6CCC5CN6)n(C)c(=O)c34)ccc2n1 (stereo not shown)"
  pIC50: 7.77

Could you now look at the following molecule, please?
Lookup result for C[C@@H]1CN(c2nc3[nH]cc(-c4ccc5nn(C)cc5c4Cl)c3c(=O)n2C)C[C@@H]1N ; measured pIC50: 7.14

----------
system tested: SHP2 (Homo sapiens (Human), UniProt Q06124)
method: SHP2 Biochemical Assay (DiFMUP conversion, pIRS1-activated)
study conditions: Table 19; head prints unit as "-M"
IC50 under 20 nM gets true, anything at or over 20 nM gets false.

Use these answered entries as a reference point.
- compound: "CCc1nc2ccc(-c3c[nH]c4nc(N5[C@@H]6CC[C@H]5C[C@@H](N)C6)n(C)c(=O)c34)c(Cl)c2s1 [Example 6]"
  cat: "true"
- compound: "Cc1nc2ccc(-c3c[nH]c4nc(N5CC6COCC(C5)N6)n(C)c(=O)c34)c(Cl)c2s1 [Example 81]"
  cat: "true"
- compound: "Cn1cc2c(Cl)c(-c3c[nH]c4nc(N5CCN[C@H](CCO)C5)n(C)c(=O)c34)ccc2n1 [Example 20]"
  cat: "false"

Now consider a different compound.
## Task Report whether reported IC50 is lower than 20 nM (strictly) for Cn1cc2c(Cl)c(-c3c[nH]c4nc(N5C[C@@H](N)[C@@H](F)C5)n(C)c(=O)c34)ccc2n1 [Example 50]
## Result false

----------
system tested: SHP2 (Homo sapiens (Human))
method: SHP2 Biochemical Assay (DiFMUP conversion, pIRS1-activated)
study conditions: Table 19; head prints unit as "-M"
Could you please report measured IC50 for the items listed next?
Give bare numbers, in nM.

Working through the 4 compounds below one at a time, give IC50 for each.
1. CCn1cc2c(Cl)c(-c3n[nH]c4nc(N5C[C@@H]6CC[C@H]5[C@H]6N)n(C)c(=O)c34)ccc2n1 (racemic) [Example 125]
2. Cn1cc2c(Cl)c(-c3c[nH]c4nc(N5C[C@H]6CC[C@@H](C5)[C@H]6N)n(C)c(=O)c34)ccc2n1 [Example 25]
3. Cn1cc2c(Cl)c(-c3c[nH]c4nc(N5CC6CCC(C5)N6)n(C)c(=O)c34)ccc2n1 [Example 28]
4. Cn1cc2c(Cl)c(-c3c[nH]c4nc(N5C[C@H]6C[C@@H]5CN6)n(C)c(=O)c34)ccc2n1 [Example 23]

## Result
17
35
19
120

----------
system tested: SHP2 (Homo sapiens (Human), UniProt Q06124)
method: SHP2 Biochemical Assay (DiFMUP conversion, pIRS1-activated)
study conditions: Table 19; head prints unit as "-M"
Structures can show the parent of a compound that is named as a salt.
outcome measure: pIC50
One number for each entry, as −log10 of the molar value.

Please supply pIC50 for each of the following items, keeping them in order.
1. Cn1cc2c(Cl)c(-c3c[nH]c4nc(N5CC6CCCC(C5)N6)n(C)c(=O)c34)ccc2n1 [Example 30]
2. Cn1cc2c(Cl)c(-c3n[nH]c4nc(N5CCC6(CC5)C[C@@H](F)C[C@H]6N)n(C)c(=O)c34)ccc2n1 [Example 144, hydrochloride salt]
3. CCn1cc2c(Cl)c(-c3c[nH]c4nc(N5CCCNCC5)n(C)c(=O)c34)ccc2n1 [Example 151, hydrochloride]
4. Cn1cc2c(Cl)c(-c3c[nH]c4nc(N5CC[C@@H](N)C5)n(C)c(=O)c34)ccc2n1 [Example 44]
5. Cn1cc2c(Cl)c(-c3c[nH]c4nc(N5[C@H]6CC[C@@H]5[C@H](N)C6)n(C)c(=O)c34)ccc2n1 [Example 49]
6. Cn1cc2c(Cl)c(-c3c[nH]c4nc(N5CC[C@H](CN)C5)n(C)c(=O)c34)ccc2n1 [Example 60]

## Result
8.01
7.72
7.64
7.26
8.35
7.09

Please report pIC50 for every entry that follows.
1. Cn1cc2c(Cl)c(-c3c[nH]c4nc(N5CC6COCC(C5)N6)n(C)c(=O)c34)ccc2n1 [Example 17]
2. C[C@H]1CNCCN1c1nc2[nH]cc(-c3ccc4nn(C)cc4c3Cl)c2c(=O)n1C [Example 48]
3. CN[C@@H]1C[C@@H]2CC[C@H]1N2c1nc2[nH]nc(-c3ccc4nn(C)c(Cl)c4c3Cl)c2c(=O)n1C [Example 119]

## Result
1. 7.37
2. 7.07
3. 7.77

----------
system tested: SHP2 (Homo sapiens (Human), UniProt Q06124)
method: SHP2 Biochemical Assay (DiFMUP conversion, pIRS1-activated)
study conditions: Table 20
Structures can show the parent of a compound that is named as a salt.
outcome measure: IC50
Field: value (include unit after the number)

- compound: "CN(C)c1ccc2ccc(-c3c[nH]c4nc(N5[C@H]6CC[C@@H]5[C@H](N)C6)n(C)c(=O)c34)c(Cl)c2n1 [Example 198, hydrochloride]"
  value observed: "0.013 µM"

Below are 2 compounds. Give each one its IC50.
1. CCn1cc2cc(-c3c[nH]c4nc(N5CCC6(CC5)COC[C@H]6N)n(C)c(=O)c34)cc(F)c2n1 [Example 186, hydrochloride]
2. Cn1nc2c(Cl)cc(-c3c[nH]c4nc(N5[C@H]6CC[C@@H]5[C@@H](N)C6)n(C)c(=O)c34)c(Cl)c2c1Cl [Example 168]

## Result
["0.036 µM", "0.007 µM"]

List reported IC50 for each of these compounds:
1. CNc1ccc2ccc(-c3c[nH]c4nc(N5[C@H]6CC[C@@H]5[C@H](N)C6)n(C)c(=O)c34)c(Cl)c2n1 [Example 199, hydrochloride]
2. CCn1cc2c(F)c(-c3c[nH]c4nc(N5CCC6(CC5)COC[C@H]6N)n(C)c(=O)c34)ccc2n1 [Example 181, hydrochloride]

## Result
1: 0.014 µM; 2: 0.023 µM

----------
system tested: SHP2 (Homo sapiens (Human), UniProt Q06124)
method: SHP2 Biochemical Assay (DiFMUP conversion, pIRS1-activated)
study conditions: Table 20
Counter-ions that a name gives are not always drawn.
Would you kindly list pIC50 for each of these compounds?
Answers are plain numbers, as −log10 of the molar value.

Below: 5 compounds and their reported pIC50.
- compound: "CCn1cc2c(Cl)c(-c3c[nH]c4nc(N5CC6CNCC5C6)n(C)c(=O)c34)ccc2n1 (single isomer, unassigned) [Example 192, hydrochloride]"
  pIC50: 7.17
- compound: "Cn1cc2c(Cl)c(-c3c[nH]c4nc(N5[C@H]6CC[C@@H]5[C@@H](N)C6)n(C)c(=O)c34)ccc2n1 (racemic)"
  pIC50: 6.77
- compound: "Cn1nc2ccc(-c3n[nH]c4nc(N5CC[C@H](N)[C@H](F)C5)n(C)c(=O)c34)c(Cl)c2c1Cl"
  pIC50: 7.38
- compound: "CCn1cc2ccc(-c3c[nH]c4nc(N5CCC6(CC5)COC[C@H]6N)n(C)c(=O)c34)c(Cl)c2n1 [Example 182, hydrochloride]"
  pIC50: 7.44
- compound: "Cn1cc2c(Cl)c(-c3c[nH]c4nc(N5[C@@H]6CCNC[C@H]5CC6)n(C)c(=O)c34)ccc2n1 [Example 189, hydrochloride]"
  pIC50: 7.72

I would be grateful if you could provide pIC50 for each of the following entries.
1. Cn1nc2ccc(-c3c[nH]c4nc(N5[C@H]6CC[C@@H]5[C@](C)(N)C6)n(C)c(=O)c34)c(Cl)c2c1Cl (racemic)
2. CCn1cc2c(Cl)c(-c3c[nH]c4nc(N5CC6CNC(C6)C5)n(C)c(=O)c34)ccc2n1 (single isomer, unassigned) [Example 190, hydrochloride]
3. Cn1nc2ccc(-c3n[nH]c4nc(N5[C@@H]6CC[C@H]5C[C@@](C)(N)C6)n(C)c(=O)c34)c(Cl)c2c1Cl
4. Cn1c(N2[C@@H]3CC[C@H]2C[C@@H](N)C3)nc2[nH]cc(-c3ccc4nccnc4c3Cl)c2c1=O
5. C[C@@H]1OCC2(CCN(c3nc4[nH]cc(-c5cc(F)c6nn(C)cc6c5Cl)c4c(=O)n3C)CC2)[C@@H]1N [Example 194, hydrochloride]
6. Cn1cc2c(Cl)c(-c3c[nH]c4nc(N5[C@H]6CCNC[C@@H]5CC6)n(C)c(=O)c34)ccc2n1 [Example 188, hydrochloride]
7. CCn1cc2cc(-c3c[nH]c4nc(N5CCC6(CC5)COC[C@H]6N)n(C)c(=O)c34)ccc2n1 [Example 180, hydrochloride]
8. CCn1cc2c(Cl)c(-c3c[nH]c4nc(N5[C@H]6CC[C@@H]5[C@@H](F)[C@@H](N)C6)n(C)c(=O)c34)ccc2n1 [Example 197, hydrochloride]

## Result
8.60
7.35
7.92
7.11
7.80
7.39
7.47
7.92

The compound identified as CC(C)N[C@@H]1C[C@@H]2CC[C@H]1N2c1nc2[nH]nc(-c3ccc4nn(C)c(Cl)c4c3Cl)c2c(=O)n1C registered its pIC50 at 6.82

The measured values listed here are drawn from patent US12037345B2.
